These entries and their values trace back to the kinase profiling compilation of Christmann-Franck et al. (2016).

Readings of kinase still bound, per cent of control for the listed compounds
SYSTEM: PRKACA (human)
ASSAY TEXT: KINOMEscan competition binding
SETUP CONDITIONS: compound 10.0 µM
QUANTITY: kinase still bound, per cent of control (%)

| SMILES STRING | RESULT |
| --- | --- |
| O=C1NC(=O)/C(=C/c2c[nH]c(=O)c(-c3ccc(N4CCNCC4)nc3)c2)S1 | 100 |
| COc1cc(N2CCN(C)CC2)ccc1Nc1ncc2c(n1)N(C)c1ccccc1N(C)C2=O | 100 |
| CN1C(=O)c2ccccc2N(C)c2nc(NS(=O)(=O)c3ccc(N)cc3)ncc21 | 100 |

====

SYSTEM: MINK1 (human)
ASSAY TEXT: KINOMEscan competition binding
SETUP CONDITIONS: compound 10.0 µM
kinase still bound, per cent of control strictly under 30% means Condition met; at 30% or over means Condition not met.

| SMILES STRING | SYSTEM | CLASS ASSIGNMENT |
| --- | --- | --- |
| NS(=O)(=O)c1ccc(-c2ccc(/C=C3\SC(=O)NC3=O)o2)cc1 | MINK1 (human) | Condition met |
| CN1C(=O)c2ccccc2N(C)c2nc(Nc3ccc(N4CCC(O)CC4)cc3)ncc21 | MINK1 (human) | Condition not met |
| O=C1NC(=S)S/C1=C\c1ccc(-c2cncc3ccccc23)o1 | MINK1 (human) | Condition not met |
| CN1C(=O)[C@H]2CCC[C@H]2N(C2CCCC2)c2nc(Nc3ccc(C(N)=O)cc3)ncc21 | MINK1 (human) | Condition met |
| CN1C(=O)c2ccccc2N(C)c2nc(NS(=O)(=O)c3ccc(N)cc3)ncc21 | MINK1 (human) | Condition not met |
| NS(=O)(=O)c1ccc(-c2ccc(/C=C3\SC(=S)N(CC(=O)O)C3=O)o2)cc1 | MINK1 (human) | Condition met |
| COc1cc(N2CCN(C)CC2)ccc1Nc1ncc2c(n1)N(C)c1ccccc1N(C)C2=O | MINK1 (human) | Condition not met |

====

SYSTEM: EPHA7 (human) (UniProt Q15375)
Sequence (Q15375 whole entry, looked up): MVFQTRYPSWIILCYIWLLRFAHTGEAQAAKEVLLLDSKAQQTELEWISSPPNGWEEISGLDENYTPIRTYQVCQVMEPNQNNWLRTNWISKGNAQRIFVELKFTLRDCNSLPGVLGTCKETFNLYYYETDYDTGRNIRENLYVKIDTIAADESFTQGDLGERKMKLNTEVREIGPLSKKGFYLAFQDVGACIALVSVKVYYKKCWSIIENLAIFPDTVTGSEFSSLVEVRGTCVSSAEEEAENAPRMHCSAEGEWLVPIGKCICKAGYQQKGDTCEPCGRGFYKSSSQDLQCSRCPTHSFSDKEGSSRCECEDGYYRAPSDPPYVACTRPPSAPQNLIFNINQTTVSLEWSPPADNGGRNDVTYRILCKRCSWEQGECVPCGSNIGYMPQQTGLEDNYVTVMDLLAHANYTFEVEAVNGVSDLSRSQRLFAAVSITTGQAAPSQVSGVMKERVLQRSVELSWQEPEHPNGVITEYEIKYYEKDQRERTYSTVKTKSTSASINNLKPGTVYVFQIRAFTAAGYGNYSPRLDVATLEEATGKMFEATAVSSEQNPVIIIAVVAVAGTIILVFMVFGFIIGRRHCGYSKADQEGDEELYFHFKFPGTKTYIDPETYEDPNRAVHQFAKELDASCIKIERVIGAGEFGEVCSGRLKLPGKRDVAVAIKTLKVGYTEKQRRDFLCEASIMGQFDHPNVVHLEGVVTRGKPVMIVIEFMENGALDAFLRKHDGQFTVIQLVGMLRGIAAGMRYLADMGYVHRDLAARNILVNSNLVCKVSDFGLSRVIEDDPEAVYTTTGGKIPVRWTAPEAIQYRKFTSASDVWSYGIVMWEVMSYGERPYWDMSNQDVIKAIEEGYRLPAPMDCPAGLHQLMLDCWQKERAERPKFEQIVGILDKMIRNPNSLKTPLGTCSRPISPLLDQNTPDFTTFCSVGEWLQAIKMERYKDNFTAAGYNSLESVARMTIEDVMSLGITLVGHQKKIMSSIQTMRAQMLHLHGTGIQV
ASSAY TEXT: KINOMEscan competition binding
SETUP CONDITIONS: compound 10.0 µM

| SMILES STRING | kinase still bound, per cent of control [%] |
| --- | --- |
| CN1C(=O)c2ccccc2N(C)c2nc(NS(=O)(=O)c3ccc(N)cc3)ncc21 | 100 |
| COc1cc(N2CCN(C)CC2)ccc1Nc1ncc2c(n1)N(C)c1sccc1C(=O)N2C | 92 |
| COc1cc(N2CCN(C)CC2)ccc1Nc1ncc2c(n1)N(C)c1ccccc1N(C)C2=O | 100 |
| COc1cc(N2CCC(O)CC2)ccc1Nc1ncc2c(n1)N1CCc3cccc(c31)C(=O)N2C | 92 |
| COc1cc(N2CCN(C)CC2)ccc1Nc1ncc2c(n1)Nc1ccccc1NC2=O | 100 |
| O=C1NC(=O)/C(=C/c2c[nH]c(=O)c(-c3ccc(N4CCNCC4)nc3)c2)S1 | 97 |
| CN1C(=O)c2ccccc2N(C)c2nc(Nc3ccc(N4CCC(O)CC4)cc3)ncc21 | 100 |
| CN1CCN(c2ccc(C(=O)Nc3ncc4c(n3)N(C)c3ccccc3C(=O)N4C)cc2)CC1 | 100 |
